Biological target: GABAA receptors (α5β2γ2) (Homo sapiens, UniProt P18507+P31644)
Construct: expressed in transfected cells
Sequence (P31644 32-462): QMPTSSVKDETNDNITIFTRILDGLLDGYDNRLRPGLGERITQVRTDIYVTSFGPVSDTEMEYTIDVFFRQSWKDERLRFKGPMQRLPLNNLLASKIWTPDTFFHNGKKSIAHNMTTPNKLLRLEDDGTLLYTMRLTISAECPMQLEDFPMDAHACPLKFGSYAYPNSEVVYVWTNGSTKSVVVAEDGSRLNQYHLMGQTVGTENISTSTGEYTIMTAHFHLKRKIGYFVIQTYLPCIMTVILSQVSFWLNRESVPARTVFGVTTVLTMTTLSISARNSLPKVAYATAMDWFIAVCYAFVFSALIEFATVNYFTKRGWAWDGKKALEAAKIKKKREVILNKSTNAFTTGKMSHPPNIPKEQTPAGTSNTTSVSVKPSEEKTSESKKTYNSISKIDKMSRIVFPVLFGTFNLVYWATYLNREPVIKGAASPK
Sequence (P47870 25-512, further chain): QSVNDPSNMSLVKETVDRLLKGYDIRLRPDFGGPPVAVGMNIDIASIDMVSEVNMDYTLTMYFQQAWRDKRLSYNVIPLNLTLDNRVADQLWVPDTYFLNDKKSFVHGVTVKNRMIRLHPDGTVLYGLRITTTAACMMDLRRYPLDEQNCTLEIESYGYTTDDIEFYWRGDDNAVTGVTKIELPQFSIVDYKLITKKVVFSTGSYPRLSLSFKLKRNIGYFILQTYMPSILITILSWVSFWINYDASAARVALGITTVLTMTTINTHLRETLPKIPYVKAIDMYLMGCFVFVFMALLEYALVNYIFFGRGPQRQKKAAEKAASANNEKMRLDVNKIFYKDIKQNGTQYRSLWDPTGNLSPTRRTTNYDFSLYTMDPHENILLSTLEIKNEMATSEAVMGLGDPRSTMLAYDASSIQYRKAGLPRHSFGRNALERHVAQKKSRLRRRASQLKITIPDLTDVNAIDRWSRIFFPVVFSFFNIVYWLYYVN
Sequence (P18507 40-475): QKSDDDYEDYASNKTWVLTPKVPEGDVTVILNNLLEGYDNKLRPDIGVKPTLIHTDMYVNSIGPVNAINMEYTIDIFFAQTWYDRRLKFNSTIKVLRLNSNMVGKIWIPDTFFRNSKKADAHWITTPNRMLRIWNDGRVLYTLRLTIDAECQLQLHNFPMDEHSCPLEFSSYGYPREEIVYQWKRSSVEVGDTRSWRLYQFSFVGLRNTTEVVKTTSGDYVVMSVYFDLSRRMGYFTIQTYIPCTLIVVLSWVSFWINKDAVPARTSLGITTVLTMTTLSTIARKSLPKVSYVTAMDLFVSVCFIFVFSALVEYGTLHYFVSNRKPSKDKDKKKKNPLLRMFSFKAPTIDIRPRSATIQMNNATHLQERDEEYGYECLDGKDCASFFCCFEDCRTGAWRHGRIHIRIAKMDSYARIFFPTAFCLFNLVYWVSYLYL
Test: Positive allosteric modulator activity: potentiation of EC20 GABA current in oocytes
Format: cell-based
Details: read-out: GABA α5 Functional Data (potentiation of EC20 GABA); @ 100 nM; ranges
propertyMeasured: activation at 0.1 µM

Value of measured activation at 0.1 µM for the entry COCc1nnc2n1Cc1c(C#Cc3cnc(OC)s3)ncn1-c1ccc(OC)cc1-2 : 5 to 20%

Value of measured activation at 0.1 µM for the entry COCc1nnc2n1Cc1c(C#Cc3cccnc3OC)ncn1-c1ccc(OC)cc1-2 : 20 to 50%

Value of measured activation at 0.1 µM for the entry COCc1nnc2n1Cc1c(C#Cc3cnc(OC)s3)ncn1-c1ccc(Cl)cc1-2 : 20 to 50%

Value of measured activation at 0.1 µM for the entry Cc1noc(-c2ncn3c2Cc2c(Cc4cccc(F)c4)nnn2-c2cc(C(F)(F)F)ccc2-3)n1 : 20 to 50%

Value of measured activation at 0.1 µM for the entry Clc1ccc2c(c1)-n1nncc1Cc1c(C3=NC[C@@H](c4ccccc4)O3)ncn1-2 : 5 to 20%

Value of measured activation at 0.1 µM for the entry COCc1nnc2n1Cc1c(C#Cc3cnc(C)n3C)ncn1-c1ccc(OC)cc1-2 : > 50%

Value of measured activation at 0.1 µM for the entry Clc1ccc2c(c1)-c1nnc(COCc3ccccc3)n1Cc1c(-c3ncco3)ncn1-2 : > 50%

Value of measured activation at 0.1 µM for the entry COc1ccc2c(c1)-n1nncc1Cc1c(C#CCc3cccc(F)c3)ncn1-2 : 20 to 50%

====

Molecular target: GABAA receptors (α5β2γ2) (Homo sapiens, UniProt P18507+P31644)
Construct: expressed in transfected cells
Assay: Positive allosteric modulator activity: potentiation of EC20 GABA current in oocytes
Type: cell-based
Conditions: read-out: GABA α5 Functional Data (potentiation of EC20 GABA); @ 100 nM; ranges
Description: On day 1, 1 ng/32 nL of GABAA α5β2γ2 cDNA was injected into one oocyte. Test starts on day 2. The cDNA injected to the oocytes was a mix of alpha, beta and gamma, their ratio is 1:1:10 (by weight) and the total weight of the mixed 3 subunits to be injected in one oocyte was 1 ng in 32 nl volume. The injected oocytes can also be tested on day 3. In such case, the cDNA amount injected to the oocytes should be reduced by 20%. 1). […]
propertyMeasured: activation at 0.1 µM

Assay GABAA receptors (α5β2γ2) (Homo sapiens, UniProt P18507+P31644), sample COCc1nnn2c1Cc1c(C#CC(C)(C)C)ncn1-c1ccc(Cl)cc1-2 , activation at 0.1 µM read: 20 to 50%

Assay GABAA receptors (α5β2γ2) (Homo sapiens, UniProt P18507+P31644), sample COCc1nnc2n1Cc1c(C#CCc3cccc(OC(F)(F)F)c3)ncn1-c1ccc(Cl)cc1-2 , activation at 0.1 µM read: 5 to 20%

Assay GABAA receptors (α5β2γ2) (Homo sapiens, UniProt P18507+P31644), sample COCc1nnc2n1Cc1c(C#Cc3cnc(C)n3C)ncn1-c1ccc(Cl)cc1-2 , activation at 0.1 µM read: > 50%

Assay GABAA receptors (α5β2γ2) (Homo sapiens, UniProt P18507+P31644), sample COCc1nnc2n1Cc1c(C#Cc3ccc(=O)n(C)c3)ncn1-c1ccc(Cl)cc1-2 , activation at 0.1 µM read: 5 to 20%

Assay GABAA receptors (α5β2γ2) (Homo sapiens, UniProt P18507+P31644), sample COc1ccc2c(c1)-n1nncc1Cc1c(C#Cc3c[nH]nc3OC)ncn1-2 , activation at 0.1 µM read: 20 to 50%

Assay GABAA receptors (α5β2γ2) (Homo sapiens, UniProt P18507+P31644), sample COCc1nnc2n1Cc1c(C#Cc3cnc(C)[nH]3)ncn1-c1ccc(OC)cc1-2 , activation at 0.1 µM read: > 50%

Assay GABAA receptors (α5β2γ2) (Homo sapiens, UniProt P18507+P31644), sample COc1ccc([C@@H]2COC(c3ncn4c3Cc3cnnn3-c3cc(Cl)ccc3-4)=N2)cc1 , activation at 0.1 µM read: 20 to 50%

Assay GABAA receptors (α5β2γ2) (Homo sapiens, UniProt P18507+P31644), sample COc1ccc2c(c1)-n1nncc1Cc1c(C3=NCC(c4ncccc4OC)O3)ncn1-2 (centres unmarked) , activation at 0.1 µM read: 5 to 20%

====

Target: α5β3γ2 GABAA receptors (Homo sapiens, UniProt P18507+P31644)
Sequence (P31644 32-462): as the sequence (P31644 32-462) above
Sequence (P28472 26-473 partner): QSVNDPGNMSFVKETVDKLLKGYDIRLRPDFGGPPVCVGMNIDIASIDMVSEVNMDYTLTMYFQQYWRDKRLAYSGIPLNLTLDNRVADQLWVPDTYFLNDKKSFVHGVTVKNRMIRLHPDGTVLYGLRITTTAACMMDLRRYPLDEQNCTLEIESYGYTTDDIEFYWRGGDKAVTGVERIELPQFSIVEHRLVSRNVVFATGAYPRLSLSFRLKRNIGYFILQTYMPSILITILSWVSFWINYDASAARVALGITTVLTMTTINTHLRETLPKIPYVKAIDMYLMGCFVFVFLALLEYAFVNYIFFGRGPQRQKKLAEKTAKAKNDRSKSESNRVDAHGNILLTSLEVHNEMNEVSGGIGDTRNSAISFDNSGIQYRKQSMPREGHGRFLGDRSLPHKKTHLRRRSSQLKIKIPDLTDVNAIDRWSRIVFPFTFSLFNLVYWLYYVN
Sequence (P18507 40-475): as the sequence (P18507 40-475) above
Experiment: [3H]Ro15-1788 binding, membranes of Ltk cells stably expressing α5β3γ2 GABAA receptors
propertyMeasured: Ki

Value of measured Ki for the entry COc1ccc(C#Cc2ncn3c2Cc2cnnn2-c2cc(Cl)ccc2-3)nc1 : < 100 nM

Value of measured Ki for the entry Clc1cccc(COCc2ncn3c2Cc2cnnn2-c2cc(Cl)ccc2-3)c1 : 100 to 1000 nM

Value of measured Ki for the entry CCCc1noc(-c2ncn3c2Cc2c(Cc4cccc(F)c4)nnn2-c2cc(Cl)ccc2-3)n1 : 100 to 1000 nM

Value of measured Ki for the entry COCc1nnn2c1Cc1c(C#Cc3cnc(OC)s3)ncn1-c1ccc(OC)cc1-2 : < 100 nM

Value of measured Ki for the entry Clc1ccc2c(c1)-n1nncc1Cc1c(COc3ccccc3)ncn1-2 : < 100 nM

Value of measured Ki for the entry Cn1ccc(C#Cc2ncn3c2Cc2cnnn2-c2cc(Cl)ccc2-3)n1 : < 100 nM

Value of measured Ki for the entry Cc1ncc(C#Cc2ncn3c2Cc2cnnn2-c2cc(Cl)ccc2-3)[nH]1 : < 100 nM

Value of measured Ki for the entry COc1ccc2c(c1)-n1nncc1Cc1c(C3=NC[C@@H](c4cccc(F)c4)O3)ncn1-2 : < 100 nM

Value of measured Ki for the entry COc1ccc2c(c1)-n1nncc1Cc1c(C3=NCC(c4cccnc4)O3)ncn1-2 (racemic) : < 100 nM

Value of measured Ki for the entry COc1ccc2c(c1)-n1nncc1Cc1c(C#Cc3ccc(OC(F)F)nc3)ncn1-2 : < 100 nM

Value of measured Ki for the entry Cc1nnc(-c2ncn3c2Cc2cnnn2-c2cc(Cl)ccc2-3)s1 : < 100 nM

Value of measured Ki for the entry Fc1cccc(Cc2nnn3c2Cc2c(-c4nc(-c5ccccc5)no4)ncn2-c2ccc(C(F)(F)F)cc2-3)c1 : 100 to 1000 nM

====

Give measured activation at 0.1 µM for each item. Keep answers brief.
Molecular target: GABAA receptors (α5β2γ2) (Homo sapiens, UniProt P18507+P31644)
Construct: expressed in transfected cells
Assay: Positive allosteric modulator activity: potentiation of EC20 GABA current in oocytes
Assay type: cell-based
Conditions: read-out: GABA α5 Functional Data (potentiation of EC20 GABA); @ 100 nM; ranges

Assay GABAA receptors (α5β2γ2) (Homo sapiens, UniProt P18507+P31644), sample COCc1nnc2n1Cc1c(C#Cc3ccnc(OC)c3)ncn1-c1ccc(OC)cc1-2 , activation at 0.1 µM read: 5 to 20%

Assay GABAA receptors (α5β2γ2) (Homo sapiens, UniProt P18507+P31644), sample COc1ccc2c(c1)-n1nncc1Cc1c(C3=N[C@H](c4cccc(Cl)c4)CO3)ncn1-2 , activation at 0.1 µM read: 5 to 20%

Assay GABAA receptors (α5β2γ2) (Homo sapiens, UniProt P18507+P31644), sample COCc1nnc2n1Cc1c(C#Cc3ccc(OC)nc3)ncn1-c1ccc(OC)cc1-2 , activation at 0.1 µM read: 20 to 50%

Assay GABAA receptors (α5β2γ2) (Homo sapiens, UniProt P18507+P31644), sample Cc1noc(-c2ncn3c2Cc2c(Cc4cccc(F)c4)nnn2-c2cc(OC(F)F)ccc2-3)n1 , activation at 0.1 µM read: 20 to 50%

Assay GABAA receptors (α5β2γ2) (Homo sapiens, UniProt P18507+P31644), sample COc1ccc2c(c1)-n1nncc1Cc1c(C3=N[C@@H](c4ccc(F)cc4)CO3)ncn1-2 , activation at 0.1 µM read: 5 to 20%

Assay GABAA receptors (α5β2γ2) (Homo sapiens, UniProt P18507+P31644), sample COCc1nnc2n1Cc1c(C#Cc3ccc4[nH]ccc4c3)ncn1-c1ccc(OC)cc1-2 , activation at 0.1 µM read: 20 to 50%

Assay GABAA receptors (α5β2γ2) (Homo sapiens, UniProt P18507+P31644), sample Clc1ccc([C@@H]2COC(c3ncn4c3Cc3cnnn3-c3cc(Cl)ccc3-4)=N2)cc1 , activation at 0.1 µM read: 5 to 20%

Assay GABAA receptors (α5β2γ2) (Homo sapiens, UniProt P18507+P31644), sample COc1ccc(C#Cc2ncn3c2Cc2cnnn2-c2cc(OC(F)F)ccc2-3)cc1 , activation at 0.1 µM read: 5 to 20%

Assay GABAA receptors (α5β2γ2) (Homo sapiens, UniProt P18507+P31644), sample CCc1cncc(C#Cc2ncn3c2Cn2c(COC)nnc2-c2cc(Cl)ccc2-3)c1 , activation at 0.1 µM read: > 50%

Assay GABAA receptors (α5β2γ2) (Homo sapiens, UniProt P18507+P31644), sample COCc1nnc2n1Cc1c(C#Cc3cccc(C)n3)ncn1-c1ccc(Cl)cc1-2 , activation at 0.1 µM read: > 50%

Assay GABAA receptors (α5β2γ2) (Homo sapiens, UniProt P18507+P31644), sample C[C@]1(c2ccccc2)COC(c2ncn3c2Cc2cnnn2-c2cc(Cl)ccc2-3)=N1 , activation at 0.1 µM read: 5 to 20%

Assay GABAA receptors (α5β2γ2) (Homo sapiens, UniProt P18507+P31644), sample Fc1ccc(C#Cc2ncn3c2Cc2cnnn2-c2cc(OC(F)F)ccc2-3)cc1 , activation at 0.1 µM read: 5 to 20%

Assay GABAA receptors (α5β2γ2) (Homo sapiens, UniProt P18507+P31644), sample COc1ccc2c(c1)-n1nncc1Cc1c(C#CCc3ccccc3OC(F)(F)F)ncn1-2 , activation at 0.1 µM read: 5 to 20%

Assay GABAA receptors (α5β2γ2) (Homo sapiens, UniProt P18507+P31644), sample COCc1nnc2n1Cc1c(C#CCc3cccc(Cl)c3)ncn1-c1ccc(Cl)cc1-2 , activation at 0.1 µM read: 20 to 50%

Assay GABAA receptors (α5β2γ2) (Homo sapiens, UniProt P18507+P31644), sample COc1ccc2c(c1)-n1nncc1Cc1c(C#Cc3ccc(OC)nc3)ncn1-2 , activation at 0.1 µM read: 5 to 20%

Assay GABAA receptors (α5β2γ2) (Homo sapiens, UniProt P18507+P31644), sample COc1ccc([C@@H]2COC(c3ncn4c3Cc3cnnn3-c3cc(OC)ccc3-4)=N2)cc1 , activation at 0.1 µM read: 5 to 20%

Assay GABAA receptors (α5β2γ2) (Homo sapiens, UniProt P18507+P31644), sample C#Cc1ncn2c1Cc1cnnn1-c1cc(Cl)ccc1-2 , activation at 0.1 µM read: > 50%
